- MEASUREMENT DESCRIPTION: Fraction unbound in C57Bl/6 mouse plasma at 0.1 mg/kg, sc after 30 mins
- Format: ADME, organism-based
MEASURE NAME: fraction unbound at 0.5 h
// return just the number, without any unit appended

For record c1cn(-c2cc(NC3=NC[C@@]4(CN5CCC4CC5)O3)ncn2)cn1 the listed fraction unbound at 0.5 h is 0.84

----------
- SYSTEM NAME: Neuronal acetylcholine receptor subunit alpha-7 (Homo sapiens)
- Sequence (P36544 whole entry): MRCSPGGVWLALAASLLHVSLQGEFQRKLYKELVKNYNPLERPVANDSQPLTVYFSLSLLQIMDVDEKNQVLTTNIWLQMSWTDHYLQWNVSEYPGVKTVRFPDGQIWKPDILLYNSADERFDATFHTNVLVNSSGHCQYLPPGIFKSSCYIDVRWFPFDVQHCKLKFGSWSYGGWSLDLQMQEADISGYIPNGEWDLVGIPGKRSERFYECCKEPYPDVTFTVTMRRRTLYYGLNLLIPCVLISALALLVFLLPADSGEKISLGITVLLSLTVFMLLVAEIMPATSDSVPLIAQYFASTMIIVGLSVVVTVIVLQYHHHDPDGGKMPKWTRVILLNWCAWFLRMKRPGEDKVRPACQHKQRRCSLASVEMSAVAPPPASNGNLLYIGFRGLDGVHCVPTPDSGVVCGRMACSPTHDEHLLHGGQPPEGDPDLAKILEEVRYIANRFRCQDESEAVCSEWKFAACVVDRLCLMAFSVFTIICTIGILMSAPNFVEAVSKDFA
- MEASUREMENT DESCRIPTION: Agonist activity at human alpha7 nAChR expressed in HEK293 cells co-expressing human RIC3 assessed as area under current curve at holding potential of -90 mV by whole-cell voltage clamp electrophysiology method
MEASURE NAME: pEC50
Would you please state pEC50, meaning minus log10 of the concentration in mol/L, as a bare number?

Quick note, pEC50 for c1ccc2cc(NC3=NC[C@@]4(CN5CCC4CC5)O3)ncc2c1 landed at 6.62

API: the following record is the query input.
Item: c1cn(-c2cc(NC3=NC[C@@]4(CN5CCC4CC5)O3)ncn2)cn1 | pEC50: 6.52

----------
- SYSTEM NAME: Neuronal acetylcholine receptor; alpha3/beta4 (Rattus norvegicus, UniProt P04757+P12392)
- Sequence (P04757 whole entry): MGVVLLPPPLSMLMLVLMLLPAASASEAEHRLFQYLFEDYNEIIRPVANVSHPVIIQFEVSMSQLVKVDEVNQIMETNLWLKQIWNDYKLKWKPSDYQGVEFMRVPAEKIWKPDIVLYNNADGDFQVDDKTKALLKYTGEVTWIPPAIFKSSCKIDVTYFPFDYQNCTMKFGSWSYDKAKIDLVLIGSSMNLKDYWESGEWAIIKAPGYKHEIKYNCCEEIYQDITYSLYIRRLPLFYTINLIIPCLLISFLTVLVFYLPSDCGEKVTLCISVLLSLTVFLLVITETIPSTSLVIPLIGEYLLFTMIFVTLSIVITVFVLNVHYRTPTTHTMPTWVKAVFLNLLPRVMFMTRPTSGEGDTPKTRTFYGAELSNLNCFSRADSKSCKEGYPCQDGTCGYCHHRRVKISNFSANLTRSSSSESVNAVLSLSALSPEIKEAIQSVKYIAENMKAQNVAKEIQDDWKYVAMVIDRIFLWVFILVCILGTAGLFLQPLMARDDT
- Sequence (P12392 whole entry): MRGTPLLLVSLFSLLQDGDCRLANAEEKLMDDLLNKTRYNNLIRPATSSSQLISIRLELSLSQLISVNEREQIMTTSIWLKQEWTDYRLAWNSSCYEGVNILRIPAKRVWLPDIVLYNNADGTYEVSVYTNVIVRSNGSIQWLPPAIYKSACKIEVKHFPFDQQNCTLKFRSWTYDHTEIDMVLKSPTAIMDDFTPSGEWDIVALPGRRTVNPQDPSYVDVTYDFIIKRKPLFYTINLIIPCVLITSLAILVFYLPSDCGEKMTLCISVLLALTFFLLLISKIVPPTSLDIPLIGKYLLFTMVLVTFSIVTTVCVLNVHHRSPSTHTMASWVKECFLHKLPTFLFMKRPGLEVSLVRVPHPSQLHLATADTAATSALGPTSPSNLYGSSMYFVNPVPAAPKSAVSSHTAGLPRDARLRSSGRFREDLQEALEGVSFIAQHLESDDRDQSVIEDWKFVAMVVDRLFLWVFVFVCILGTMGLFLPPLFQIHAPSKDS
- MEASUREMENT DESCRIPTION: Agonist activity at rat alpha3beta4 nAChR expressed in HEK293 cells assessed as increase in Ca2+ flux by Fluo-4 AM dye based FLIPR assay
pEC50: −log10 of the molar value.
MEASURE NAME: pEC50

Recorded pEC50 (compound c1cn(-c2cc(NC3=NC[C@@]4(CN5CCC4CC5)O3)ncn2)cn1 ): < 4.00

----------
- MEASUREMENT DESCRIPTION: Fraction unbound in monkey plasma at 10 uM after 4 hrs by equilibrium dialysis method
- Type: ADME, cell-free, Macaca mulatta
- EXPERIMENTAL CONDITIONS: rhesus monkey
fraction unbound at 4 h, 10 µM values for the compounds below.
Would you mind answering with just the numeric figure?

Query c1cn(-c2cc(NC3=NC[C@@]4(CN5CCC4CC5)O3)ncn2)cn1 yields fraction unbound at 4 h, 10 µM of 0.87

Consider the record given below.
The reported fraction unbound at 4 h, 10 µM of the compound c1ccc2cc(NC3=NC[C@@]4(CN5CCC4CC5)O3)ncc2c1 was 0.35
